# Assay Method Text: KARI assay of purified S. exigua KARI and variants with NADH (Examples 6-9)
# Format: biochemical
# Condition Info: specific activity ratio
Known Ratio NADH/NADPH (U/mg) of a selection of molecules
Answer as a number with no unit attached.

Se1_KARI^EE1-his6: S. exigua KARI variant L57R (protein, UniProt D0WGK0 1-342, looked up, variant L57R, His6 tag, S. exigua KARI variant L57R) Ketol-acid reductoisomerase …: MSVKTKEKEMAVTILYEQDVDPKVIQGLKVGIIGYGSQGHAHALNLMDSGVDVRVGRREGSSSWKTAEEAGLKVTDMDTAAEEADVIMVLVPDEIQPKVYQEHIAAHLKAGNTLAFAHGFNIHYGYIVPPEDVNVIMCAPKGPGHIVRRQFTEGSGVPDLACVQQDATGNAWDIVLSYCWGVGGARSGIIKATFAEETEEDLFGEQAVLCGGLVELVKAGFETLTEAGYPPELAYFECYHEMKMIVDLMYESGIHFMNYSISNTAEYGEYYAGPKVINEQSREAMKEILKRIQDGSFAQEFVDDCNNGHKRLLEQREAINTHPIETTGAQIRSMFSWIKKED : 1.58

Ratio NADH/NADPH (U/mg) lookup needed for Se1_KARI^13G6: S. exigua KARI variant G60V, I95A (protein, UniProt D0WGK0 1-342, looked up, variant G60V I95A) Ketol-acid reductoisomerase …: MSVKTKEKEMAVTILYEQDVDPKVIQGLKVGIIGYGSQGHAHALNLMDSGVDVRVGLREVSSSWKTAEEAGLKVTDMDTAAEEADVIMVLVPDEAQPKVYQEHIAAHLKAGNTLAFAHGFNIHYGYIVPPEDVNVIMCAPKGPGHIVRRQFTEGSGVPDLACVQQDATGNAWDIVLSYCWGVGGARSGIIKATFAEETEEDLFGEQAVLCGGLVELVKAGFETLTEAGYPPELAYFECYHEMKMIVDLMYESGIHFMNYSISNTAEYGEYYAGPKVINEQSREAMKEILKRIQDGSFAQEFVDDCNNGHKRLLEQREAINTHPIETTGAQIRSMFSWIKKED , thanks. 0.8

// provenance: patent US20140295512A1
